Study system: mGAT3 (Mus musculus, UniProt P31649)
Construct: expressed in transfected cells; host or cells: HEK-293
Sequence (P31649 whole entry): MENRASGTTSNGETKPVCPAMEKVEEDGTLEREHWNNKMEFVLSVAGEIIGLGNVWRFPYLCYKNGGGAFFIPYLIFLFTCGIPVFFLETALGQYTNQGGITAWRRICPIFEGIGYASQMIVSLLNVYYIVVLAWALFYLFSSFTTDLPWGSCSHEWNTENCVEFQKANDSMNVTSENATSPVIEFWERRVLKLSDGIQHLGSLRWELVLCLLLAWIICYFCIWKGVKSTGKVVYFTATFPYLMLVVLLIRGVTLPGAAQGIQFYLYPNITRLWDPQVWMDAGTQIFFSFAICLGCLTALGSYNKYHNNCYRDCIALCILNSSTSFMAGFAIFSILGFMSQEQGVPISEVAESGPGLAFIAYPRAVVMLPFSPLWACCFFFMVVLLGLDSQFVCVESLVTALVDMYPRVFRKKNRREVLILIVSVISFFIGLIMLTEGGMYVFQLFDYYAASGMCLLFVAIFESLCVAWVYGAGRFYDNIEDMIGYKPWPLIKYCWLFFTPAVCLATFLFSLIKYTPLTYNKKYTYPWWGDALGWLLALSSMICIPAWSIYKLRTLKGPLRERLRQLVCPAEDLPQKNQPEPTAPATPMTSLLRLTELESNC
Run description: [3H]GABA uptake assay in HEK-293 cells stably expressing mGAT3
Type: cell-based
Test conditions: [3H]GABA uptake; read-out: pIC50 ± SEM mGAT3 (converted)
IC50 values by entry
Form field: result (number plus unit)

Worked cases, answers included:
{"Compound": "CN(CCON=C(c1ccccc1)c1ccccc1)C(CO)C(=O)NCc1ccc(F)cc1 (stereo not shown) [Compound 59c]", "IC50": "19.5 µM"}
{"Compound": "Cc1ccsc1C(=C1CCN(C(CC(C)O)C(=O)NCc2ccccc2Cl)CC1)c1sccc1C (stereo not shown) [2RS,4SR-37b]", "IC50": "72.4 µM"}

Give IC50 for CC(=O)NCCC(C(=O)NCc1ccc(Cl)c(Cl)c1)N(C)CCON=C(c1ccccc1)c1ccccc1 (stereo not shown) [Compound 51b]
6.76 µM

Give IC50 for CN(CCON=C(c1ccccc1)c1ccccc1)C(CO)C(=O)NCc1ccccc1Cl (stereo not shown) [Compound 59b]
15.8 µM
